experiment: pH measuring range of the indicator via luminescence decay time; type: physicochemical
The following compounds are listed with their measured measuring range values.

Below, 4 compounds whose answers are already recorded.
c1ccc2nc3ccccc3cc2c1 [Acridine]    4.0-7.0 pH
O=C(O)Cc1c[nH]c2ccccc12 [3-indolylacetic acid]    2-4 pH
Oc1ccc2ccccc2c1 [Example 2-naphthol, 2-naphthol]    1.2-4.3 pH
O=c1c2ccccc2[nH]c2ccccc12 [9(10H)-acridone]    0.5-2.5 pH

We next turn to a different compound, shown below.
-- ask Could you please provide reported measuring range for O=Cc1ccccc1O [Salicylaldehyde] ? Thanks!
-- reply 7-10 pH

Data origin, for the record: patent US5308581A
